The values you see were collected from patent US9598433B2.

- System: HCV genotype 1b (Con1) replicon in HUH-7 cells
- Method summary: HCV replicon luciferase reporter assay, genotype 1b
- Format: cell-based
- Protocol conditions: Hepatitis C virus, 72 h, genotype 1b replicon, 3 days incubation, read-out: LE_1b (EC50, range)
- Source text: An HCV replicon whole cell system was established as described by Lohmann V, Korner F, Koch J, Herian U, Theilmann L, Bartenschlager R., Science 285(5424):110-3 (1999) and modified to introduce a luciferase reporter, as first described by Krieger et al (Krieger N, Lohmann V, and Bartenschlager R, J. Virol. 75(10):4614-4624 (2001)). […]
pEC50: −log10 of the molar value.
Metric name: pEC50

*Q* Give the measured pEC50 of C[C@@H]1CC/C=C\[C@@H]2C[C@@]2(C(=O)NS(=O)(=O)C2(C)CC2)NC(=O)[C@@H]2C[C@@H](Oc3nc4c(c5ccccc35)CCCO4)CN2C(=O)[C@@H](NC(=O)OC(C)(C)C(F)(F)F)[C@H](C)O1 .
*A* 9.00 to 9.29

*Q* Also need CC[C@@H]1O[C@H](C)CC/C=C\[C@@H]2C[C@@]2(C(=O)NS(=O)(=O)C2(C)CC2)NC(=O)[C@@H]2C[C@@H](Oc3nc(OC)cc4cc(OC)ccc34)CN2C(=O)[C@H]1NC(=O)OC(C)(C)C(F)(F)F , thanks.
*A* 9.30 to 10.00

*Q* Also need CC[C@@H]1O[C@H](C)CC/C=C\[C@@H]2C[C@@]2(C(=O)NS(=O)(=O)C2(C)CC2)NC(=O)[C@@H]2C[C@@H](Oc3nccc4cc(OC)c(F)cc34)CN2C(=O)[C@H]1NC(=O)OC(C)(C)C(F)(F)F , thanks.
*A* 9.30 to 10.00
